Assay: Solubility of the compound in aqueous phosphate buffer at 25 degC at pH 7.4 after 24 hrs
Type: physicochemical
property-name: solubility at 24 h (µM)

1) C=CC(=O)Nc1ccccc1Nc1nc(Nc2ccnn2C)ncc1Cl 520
2) COc1cc(O)c2c(c1)/C=C/C[C@H](O)[C@@H](O)C(=O)/C=C/C[C@H](C)OC2=O 47
3) C=CC(=O)Nc1ccccc1Nc1nc(NC2CCOCC2)ncc1C 170
4) C=CC(=O)Nc1ccccc1Nc1cc(NC2CCOCC2)ncc1Cl 40
5) CNC(=O)c1ccc(F)cc1Nc1cc(NC2CCOCC2)ncc1C(F)(F)F 8.8
6) C=CC(=O)Nc1ccccc1Nc1nc(N[C@H]2CC[C@H](N(C)C)CC2)ncc1Cl 770
7) CNC(=O)c1ccc(F)cc1Nc1cc(Nc2cc(C)nn2C)ncc1C(F)(F)F 15
8) CC(C)Nc1cc(-c2c[nH]c(C(=O)N[C@H](CO)c3cccc(Cl)c3)c2)c(Cl)cn1 8.5
9) C=CS(=O)(=O)N1CCc2cnc(NC3CCOCC3)nc2C1 760
10) C=CC(=O)Nc1ccccc1Nc1nc(Nc2ccnn2C)ncc1C 990

Value source: ChEMBL document CHEMBL3588785
